Biological target: Cv5-HT2α (Calliphora vicina, UniProt I7JA47)
Sequence (I7JA47 entry or part of it): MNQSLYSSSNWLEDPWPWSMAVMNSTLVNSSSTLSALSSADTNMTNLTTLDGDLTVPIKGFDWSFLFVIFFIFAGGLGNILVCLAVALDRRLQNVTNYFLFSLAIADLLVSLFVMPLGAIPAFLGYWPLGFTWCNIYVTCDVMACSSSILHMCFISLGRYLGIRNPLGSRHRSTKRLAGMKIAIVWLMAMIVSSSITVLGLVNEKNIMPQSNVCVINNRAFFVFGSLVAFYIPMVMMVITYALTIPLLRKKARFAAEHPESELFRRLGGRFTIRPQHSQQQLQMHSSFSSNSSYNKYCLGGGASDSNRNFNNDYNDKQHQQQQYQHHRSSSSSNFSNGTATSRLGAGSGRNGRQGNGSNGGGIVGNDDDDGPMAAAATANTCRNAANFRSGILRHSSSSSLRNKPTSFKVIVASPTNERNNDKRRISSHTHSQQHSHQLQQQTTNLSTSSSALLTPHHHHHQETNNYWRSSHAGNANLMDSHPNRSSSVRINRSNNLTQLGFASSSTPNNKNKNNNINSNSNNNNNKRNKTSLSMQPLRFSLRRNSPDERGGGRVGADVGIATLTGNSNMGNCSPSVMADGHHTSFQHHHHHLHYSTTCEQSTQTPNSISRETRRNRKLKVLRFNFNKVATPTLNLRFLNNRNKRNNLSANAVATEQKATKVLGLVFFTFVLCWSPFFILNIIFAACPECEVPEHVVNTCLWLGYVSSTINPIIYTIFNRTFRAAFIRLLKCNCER
Test: Ca2+ signals (Fluo-4) in Cv5-HT2α-expressing HEK 293 cells, agonists
Format: cell-based
Details: Ca2+-dependent Fluo-4 signal, Cv5-HT2α-expressing HEK 293 cells
measurement-kind: Cv5-HT2α log EC50

[
  {
    "compound": "CC[C@@H](CO)NC(=O)[C@@H]1C=C2c3cccc4c3c(cn4C)C[C@H]2N(C)C1 [methysergide]",
    "experimental-system": "Cv5-HT2α (Calliphora vicina, UniProt I7JA47)",
    "recorded-measurement": "no effect"
  },
  {
    "compound": "NCCc1c[nH]c2ccc(C(N)=O)cc12 [5-CT, 5-carboxamidotryptamine]",
    "experimental-system": "Cv5-HT2α (Calliphora vicina, UniProt I7JA47)",
    "recorded-measurement": "−4.29±0.05"
  },
  {
    "compound": "Cc1nn(C)c(C)c1-c1cccc2c1CC[C@H](N(C)C)C2 [AS 19]",
    "experimental-system": "Cv5-HT2α (Calliphora vicina, UniProt I7JA47)",
    "recorded-measurement": "no effect"
  },
  {
    "compound": "CCN(CC)C(=O)N[C@H]1C=C2c3cccc4[nH]cc(c34)C[C@H]2N(C)C1 [R(+)-lisuride]",
    "experimental-system": "Cv5-HT2α (Calliphora vicina, UniProt I7JA47)",
    "recorded-measurement": "no effect"
  }
]

* * *

Molecular target: Cv5-HT2α (Calliphora vicina, UniProt I7JA47)
Test: Ca2+ signals (Fluo-4) in Cv5-HT2α-expressing HEK 293 cells, agonists
Format: cell-based
Details: Ca2+-dependent Fluo-4 signal, Cv5-HT2α-expressing HEK 293 cells; read-out: Cv5-HT2α EC50
measurement-kind: pEC50
Expect pEC50 as a plain number equal to -log10 of the molar concentration.

What measured pEC50 goes with NCCc1c[nH]c2ccc(C(N)=O)cc12 ?
4.29

* * *

Target: Cv5-HT7 (Calliphora vicina)
Experiment: Inhibition of 5-HT-induced Fluo-4 signals in Cv5-HT7-expressing cells
Type: cell-based
Settings: in the presence of 6 nM 5-HT; read-out: Cv5-HT7 IC50
The following compounds are shown together with reported IC50 values.
# unit: nM | format: bare number

[
  {
    "compound": "Cc1ccc(N(CC2=NCCN2)c2cccc(O)c2)cc1",
    "readout-unit": "nM",
    "IC50": 4700
  }
]

# returns recorded IC50 (system: Cv5-HT7 (Calliphora vicina)) for O=C(c1ccc(F)cc1)C1CCN(CCn2c(=O)[nH]c3ccccc3c2=O)CC1
1500

* * *

The following compounds are shown together with reported EC50 values.
Molecular target: Cv5-HT7 (Calliphora vicina, UniProt I7IA71)
Sequence (I7IA71 entry or part of it): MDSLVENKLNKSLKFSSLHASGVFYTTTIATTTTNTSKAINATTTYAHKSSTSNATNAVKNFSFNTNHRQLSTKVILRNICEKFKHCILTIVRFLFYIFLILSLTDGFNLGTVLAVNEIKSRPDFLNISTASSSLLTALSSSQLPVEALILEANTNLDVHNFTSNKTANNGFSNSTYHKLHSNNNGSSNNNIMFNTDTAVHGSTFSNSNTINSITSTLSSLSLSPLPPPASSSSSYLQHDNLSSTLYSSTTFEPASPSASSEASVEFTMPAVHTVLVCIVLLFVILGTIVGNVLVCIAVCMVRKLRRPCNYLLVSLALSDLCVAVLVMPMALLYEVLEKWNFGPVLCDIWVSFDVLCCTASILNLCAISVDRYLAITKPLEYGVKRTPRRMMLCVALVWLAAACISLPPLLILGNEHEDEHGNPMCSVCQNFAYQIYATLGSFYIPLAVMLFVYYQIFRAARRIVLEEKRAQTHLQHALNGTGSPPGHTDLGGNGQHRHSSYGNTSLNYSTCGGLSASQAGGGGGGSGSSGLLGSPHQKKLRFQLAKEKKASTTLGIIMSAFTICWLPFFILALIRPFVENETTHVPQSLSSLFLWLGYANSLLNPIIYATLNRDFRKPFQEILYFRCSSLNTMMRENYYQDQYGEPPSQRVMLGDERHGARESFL
Test: cAMP-dependent CNG channel Ca2+ influx (Fluo-4) in Cv5-HT7-expressing flpTM cells, agonists
Format: cell-based
Settings: Cv5-HT7 log EC50, Fluo-4 signal, Cv5-HT7-expressing flpTM cells, 100 µM IBMX
Please format your answer as a value with the unit trailing.

[
  {
    "compound": "COc1ccc2[nH]cc(CCN)c2c1 [5-MeOT, 5-methoxytryptamine]",
    "experimental-system": "Cv5-HT7 (Calliphora vicina, UniProt I7IA71)",
    "EC50": "955 nM"
  }
]

Now, please, on to the next compound.
What measured EC50 goes with CC[C@@H](CO)NC(=O)[C@@H]1C=C2c3cccc4c3c(cn4C)C[C@H]2N(C)C1 [methysergide] ?
776 nM
